Readings of inhibition of aggregation for the listed compounds
assay: reduction of polyQ htt aggregates in cells – imaging, exon1htt(103Q)mCFP cells, high-content imaging, primary screen (AID 483); conditions: exon1htt(103Q)mCFP cell line, aggregate imaging, at 2 µM; stronger effect = higher value;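 also: compound exposure lasted 3 days before fixation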
reported.endpoint: inhibition of aggregation (%)

INSERT INTO measurements (compound, readout_value) VALUES
  ('CCc1ccc(C=NC23CN4CN(CN(C4)C2)C3)s1', -5.7),
  ('Cc1cccc(N2CCN(C(=O)Cn3nc(Cc4ccncc4)c4ccccc4c3=O)CC2)c1C', 14.3),
  ('C/C(=N\O)C(=O)C(CN1CCCCC1)CN1CCCCC1', -0.1),
  ('Cc1cc2c(cc1C)C(=O)NC(C)(C)C2', -12.1),
  ('COc1ccc(NC(=O)Nc2ccc(C)cc2OC(F)F)cc1OC', 6.2),
  ('N#CCCN(C(=O)Nc1ccc(Cl)cc1)c1ccccc1', -8.5),
  ('CCN1CCCC1CNC(=O)CS(=O)(=O)Cc1nc(-c2ccccc2C)oc1C (stereo not given)', 3.2),
  ('COc1ccc(C(=O)Nc2nc(C)c(C(=O)N(C)C)s2)cc1OC', 5.4),
  ('CC(=O)N(C)C1(c2nnnn2CCOC(=O)Nc2ccc(Cl)cc2)CCCCC1', 5.4),
  ('O=C1CCCC(O)=C1C=Nc1ccc2c(c1)oc1ccccc12', -0.4),
  ('COc1ccc(-n2ncc3c(=O)n(CC(=O)OCc4ccccc4)cnc32)cc1', -19.6),
  ('CCNc1nc(N2CCOCC2)nc(N(c2ccccc2)c2ccccc2)n1', -29.1),
  ('CCOC(=O)c1[nH]c(=O)c2ccccc2c1O', 2.9),
  ('Cn1c(=O)c2c(nc(SCCCC#N)n2Cc2ccccc2F)n(C)c1=O', -13.6),
  ('COCCN1Cc2cccc(C(=O)Nc3cccnc3)c2C1=O', -6.7);

----------
assay: endothelial E-selectin expression blockers – imaging, HUVEC, immunofluorescence, MLSMR starter and 10KST1 sets, primary screen (AID 487); settings: HUVEC TNFalpha-induced E-selectin immunofluorescence imaging, at 2 µM; stronger effect = higher value;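 also: signal is fraction of cell area covered by stained E-selectin grains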
Readings of inhibition for the listed compounds
reported.endpoint: inhibition (%)

INSERT INTO results (compound, readout_value) VALUES
  ('O=C(O)c1ccc(-c2ccc(O)c(F)c2)cc1', -11.2),
  ('COC(=O)c1c(-c2cccs2)csc1NC(=O)CN1CCOCC1', -22.6),
  ('O=C(NCCCN1CCCC1=O)c1ccc2c(c1)NC(=O)C(N1CCOCC1)S2 (centres undefined)', -21.8),
  ('CCN(CC)S(=O)(=O)c1ccc2c(c1)nc(SCC(=O)NC1CC1)n2-c1ccccc1OC', -137);

----------
assay: reduction of polyQ htt aggregates in cells – imaging, exon1htt(103Q)mCFP cells, high-content imaging, primary screen (AID 483); settings: exon1htt(103Q)mCFP cell line, aggregate imaging, at 2 µM; measured here: cell count, toxicity;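 also: compound exposure lasted 3 days before fixation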;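 as to nuclei count: percent of the per-plate median nuclei count of sample wells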
reported.endpoint: nuclei count

INSERT INTO results (compound, readout_value) VALUES
  ('O=C(CCSc1nc(-c2ccco2)cc(C(F)(F)F)n1)NCCc1ccccc1', '106%'),
  ('CCOc1ccccc1N(C(=O)Cn1nnnc1-c1ccc(C)o1)C(CC)C(=O)NC(C)(C)C (centres undefined)', '111%'),
  ('COc1ccc(CNC(=O)CN(C(=O)c2ccc(CN3CCOCC3)o2)C2CCCC2)cc1', '98.3%'),
  ('O=S(=O)(c1ccc(N2CCN(c3ccc(F)cc3)CC2)cc1)N1CCCC1', '95.7%');
